test system: Escherichia coli TOP10; assay: shrunken log2 fold change of peptide-encoding DNA abundance (4.5 h post-induction vs induction); higher = less antimicrobial activity (less host growth inhibition); conditions: time post-induction: 4.5 h; library: site-saturation at positions 5, 18, 19, 20
PROPERTY NAME: shrunken log2 fold change
Answers are plain numbers.

# example entries with known answers
MONOMER SEQUENCE: RRIRARPPRLPRPRPRPELSPRP
SYSTEM: Escherichia coli TOP10
shrunken log2 fold change: 0.0862

MONOMER SEQUENCE: RRIRQRPPRLPRPRPRPVWDPRP
SYSTEM: Escherichia coli TOP10
shrunken log2 fold change: -0.104

MONOMER SEQUENCE: RRIRSRPPRLPRPRPRPCQLPRP
SYSTEM: Escherichia coli TOP10
shrunken log2 fold change: -0.163

MONOMER SEQUENCE: RRIRMRPPRLPRPRPRPDWLPRP
SYSTEM: Escherichia coli TOP10
shrunken log2 fold change: -0.0671

MONOMER SEQUENCE: RRIRIRPPRLPRPRPRPGGRPRP
SYSTEM: Escherichia coli TOP10;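 further: peptides expressed intracellularly from a pBAD plasmid library in pooled LB shake-flask culture, induced with 0.3% L-arabinose, DNA abundance read by NGS, three biological replicates, DESeq2 with apeglm shrinkage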
shrunken log2 fold change: 0.229

Kindly give each listed record's shrunken log2 fold change.
1. RRIRNRPPRLPRPRPRPFWGPRP
2. RRIRQRPPRLPRPRPRPARNPRP
3. RRIRCRPPRLPRPRPRPMRHPRP
4. RRIRARPPRLPRPRPRPPEKPRP

1. -0.157
2. 0.298
3. -0.0878
4. 0.611

Look up shrunken log2 fold change for the entries below, preserving their order.
1. RRIRNRPPRLPRPRPRPKSMPRP
2. RRIRFRPPRLPRPRPRPCSQPRP
3. RRIRDRPPRLPRPRPRPAEYPRP
4. RRIRHRPPRLPRPRPRPWYKPRP
5. RRIRTRPPRLPRPRPRPFKHPRP
6. RRIRDRPPRLPRPRPRPSQMPRP
7. RRIRLRPPRLPRPRPRPRYGPRP
8. RRIRTRPPRLPRPRPRPKSMPRP

0.0478
0.0319
-0.491
-1.2
-0.126
0.0862
-0.0186
-0.62

Would you be so kind as to report shrunken log2 fold change for each listed record?
1. RRIRIRPPRLPRPRPRPYRMPRP
2. RRIRLRPPRLPRPRPRPRGTPRP
3. RRIRIRPPRLPRPRPRPKKMPRP
4. RRIRTRPPRLPRPRPRPEWRPRP
5. RRIRRRPPRLPRPRPRPYGAPRP
6. RRIRARPPRLPRPRPRPFHDPRP
7. RRIRFRPPRLPRPRPRPTHYPRP
8. RRIRYRPPRLPRPRPRPVYQPRP

1. -1.26
2. 0.0155
3. 0.222
4. 0.338
5. -0.171
6. -0.356
7. -0.0275
8. -0.341
